The measurements presented in this section are drawn from PubChem BioAssay (NCATS).

# assay.notes: High-throughput drug toxicity screening in the BPDCN cell line Cal-1 (AID 1224825);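 note: cells exposed to compounds for 48 h; 100% = DMSO and 0% = bortezomib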
# setup.conditions: Cal-1 BPDCN cell viability, qHTS; at 45.8 µM (top of the series) unless noted
Residues, ends and D or L forms follow the SMILES beside them. *: point of attachment. Cbz = O=C(OCc1ccccc1)*
Kindly state viability (% of control) for each of the entries shown.
Give the number; % is assumed, so skip it.

Per the record, `COc1cc([C@@H]2c3cc4c(cc3[C@@H](O[C@@H]3O[C@@H]5CO[C@@H](c6cccs6)O[C@@H]5[C@H](O)[C@@H]3O)[C@H]3COC(=O)[C@H]23)OCO4)cc(OC)c1O` has viability (% of control) of 5.23

Per the record, `CCn1c(=O)c2c(nc(C=Cc3ccc(OC)c(OC)c3)n2C)n(CC)c1=O` has viability (% of control) of 99.5

Per the record, CC(C)C[C@H](NC(=O)CNC(=O)c1cc(Cl)ccc1Cl)B1OC(=O)CC(CC(=O)O)(C(=O)O)O1 (some centres not stated) has viability (% of control) of 3.61

Per the record, CC(C)C[C@@H](C=O)NC(=O)[C@H](CC(C)C)NC(=O)[C@H](CC(C)C)NC(=O)OCc1ccccc1 (Cbz-Leu-Leu-Leu-aldehyde) has viability (% of control) of 4.19

Per the record, `C[C@H](NC(=O)Cc1cc(F)cc(F)c1)C(=O)N[C@H](C(=O)OC(C)(C)C)c1ccccc1` has viability (% of control) of 96.1

Per the record, `O=C1c2cccc(O)c2C(=O)c2c(O)cc(CO)cc21` has viability (% of control) of 116

Per the record, `NC[C@H]1O[C@H](O[C@H]2[C@@H](O)[C@@H](O[C@H]3O[C@H](CO)[C@@H](O)[C@H](N)[C@@H]3O)[C@H](N)C[C@@H]2N)[C@H](N)C[C@H]1O` has viability (% of control) of 123
